Measured cytotoxicity at 70.5 h of individual entries
# Assay: Human HepG2 cell viability assay in 384 well format
# Format: toxicity, cell-based
# Set-up: dose 125 nL, time 70.5 hour; concentration not given beside the values
# Condition Context: HepG2 cells, read-out: Inhibition
Measurement Label: cytotoxicity at 70.5 h

Molecule	Result
Cc1cccc(CN2Cc3nccn3CC(CN3CCOCC3)C2)c1 (centres undefined)	-9.03%
O=C(c1ccncc1)N1CCN(C(=O)c2coc3ccccc23)CC1	-11%
CNC(=O)NCC(=O)N(C)C(c1ccc(Cl)cc1)c1cccnc1 (centres undefined)	21.3%
Cc1cc(C(=O)NCCc2cn3nc(C)sc3n2)c(C)o1	-5.61%
CC(NC(=O)N1CCN(c2cccs2)CC1)c1ccc(C#N)cc1 (centres undefined)	-2.79%
Cc1nnc2n1CCN(C(=O)C1CCN(Cc3ccccc3)CC1)C2	14.2%
COc1cc(N(C)Cc2cccc(-n3cccn3)c2)nc(N)n1	-1.55%
CCCOc1cc(Cl)c(CN2CCNC(C(=O)NC3CC3)C2)cc1OC (centres undefined)	-10.6%
CSc1ncccc1C(=O)NCc1ccc(N(C)C)cc1	40.2%
CC(Sc1nnc(C2CC2)n1CC(N)=O)c1ccc(Cl)cc1 (centres undefined)	-8.5%
CC(=O)N1C(CN2CCCC2)C[C@@H]2CN(C(=O)c3ccoc3)CC[C@@H]21 (some centres undefined)	-15.6%
CN(C(=O)COc1ccc(F)cc1)[C@@H]1CC[C@@H](n2ccnc2)[C@@H]1O	-4.21%
Cc1nn(C)c(N2CCOCC2)c1CNC(c1cccs1)C(C)C (centres undefined)	6.88%
CN1CCN(Cc2ccncc2)C(=O)C12CCN(Cc1ccsc1)CC2	2.26%
Cc1nc2c(c(N3CCC(O)(Cn4ccnc4)CC3)n1)CCNCC2	-1.99%
O=C(c1cn(CC(=O)N2CCCCC2)c2ccccc12)C1CC1	24%
Cc1ccc(NC(=O)Nc2c(O)oc3ccccc3c2=O)cc1	4.11%
CC(NC(=O)N1CCC(CC(N)=O)CC1)c1csc2ccccc12 (centres undefined)	-10.8%
Oc1cccc(CNCCC2CCCO2)c1 (centres undefined)	-12.5%
O=C(N[C@@H]1CN(Cc2cccc(F)c2)C[C@H]1O)c1cscn1	-4.57%
Cn1cc(CN2CCCC3(CCN3S(C)(=O)=O)C2)cn1 (centres undefined)	7.75%
CCS(=O)(=O)N1CCC(NC(=O)c2cc(C)ccc2O)CC1	-5.66%
CN1CCOC(CNCc2ccc(OCc3ccccn3)cc2)C1 (centres undefined)	-6.69%
CC(Oc1ccc2c(c1)OCO2)C(=O)Nc1ccon1 (centres undefined)	-6.17%

----------
# Assay: Human HepG2 cell viability assay in 384 well format
# Type: toxicity, cell-based
# Design: dose 125 nL, time 70.5 hour; concentration not given beside the values
# Condition Context: HepG2 cells, read-out: Inhibition

Compound	cytotoxicity at 70.5 h
CN(C)C[C@H]1C[C@@H]2CN(Cc3ccoc3)C[C@@H]2O1	-12.5%
O=C(c1cnc(NCC2CCCO2)c(Cl)c1)N1CCCCC1 (stereo not drawn)	30.2%
Cc1cnn(CCC(=O)N2CCCN(c3ncccc3C#N)CC2)c1	0.758%
CCOC[C@]12COC[C@H]1CN(Cc1cccc(OC)c1)C2	-5.95%
Cc1ccc(CNC(=O)NC(C)Cn2cccn2)cn1 (stereo not drawn)	-9.6%
COC(=O)c1ccccc1NS(=O)(=O)c1c(C)nn(C)c1C	-6.21%
CC(C)CC(=O)N1CC[C@H]2C[C@H](c3nccs3)O[C@@H]2C1	2.63%
Cc1ccnc(C(=O)N2C[C@@H]3CN(S(C)(=O)=O)CCO[C@@H]3C2)c1	18%
CCOc1ccc(-c2ccnc(COc3ccccc3)n2)cc1C(=O)O	-0.267%
CN(Cc1ccc(F)cc1)C(=O)Nc1cccnc1N1CCCC1	-6.22%
CN1C[C@@H](n2cnc(-c3ccccc3)c2-c2ccccn2)C[C@H]1C(=O)O	-10%
CSCc1ccc(C(=O)N2CCN(CC(C)O)CC2)cc1 (stereo not drawn)	-15.3%
CCOc1ccccc1OC1CCN(Cc2ccn(C)c(=O)c2)CC1	20.3%
CN(C)C(=O)COC[C@H]1CC[C@@H]2[C@@H](CCN2Cc2ccco2)O1	7.59%
CN1CCN(c2ncccn2)CC12CCC(=O)N(CC1CC1)CC2 (stereo not drawn)	9.35%
NC(=O)CCNC(=O)Cc1cccc(I)c1	16.7%
O=C(c1ccsc1)N1CC[C@@H](N2CCOCC2)[C@@H]1Cc1ccccc1	-11.8%
Cc1cnn(CCNCc2ccccc2OCc2ccccn2)c1	-0.163%
Cn1cc(C2CCCN2C(=O)c2ccc(NC3CC3)nc2)cn1 (stereo not drawn)	0.0682%
O=C(CN1CCCC(c2ccc(C(=O)O)cc2)C1)NC1CC1 (stereo not drawn)	-5.55%
CSc1ccc(CN(CCO)Cc2nccn2C)cc1	-3.61%
O=C(Cc1ccccn1)N1CCCC(c2nccn2CC2CCC2)C1 (stereo not drawn)	-24.3%
Cc1ccc(C2CCCCCN2CCCS(C)(=O)=O)o1 (stereo not drawn)	-10.5%

----------
# Assay: Human HepG2 cell viability assay in 384 well format
# Type: toxicity, cell-based
# Set-up: dose 125 nL, time 70.5 hour; concentration not given beside the values
# Condition Context: HepG2 cells, read-out: Inhibition
Measured cytotoxicity at 70.5 h of individual entries
Measurement Label: cytotoxicity at 70.5 h (%)

Molecule	Unit String	Recorded Number
Cc1n[nH]cc1CNCc1ccnc(OCC(F)(F)F)c1	%	-7.14
CC(C)N1CCC2(CCCN(Cc3ccc(F)cc3)C2=O)C1 (stereo unspecified)	%	27.4
CC(C)c1cc(NC(=O)CN2CCc3c(nc(C(C)C)n3C)C2)on1	%	-15
CCc1nc(CN2CCCN(C(=O)C(C)n3ccnc3)CC2)cs1 (stereo unspecified)	%	-9
CN(C)CCOCC1CN(C(=O)c2cscn2)Cc2ccnn2C1 (stereo unspecified)	%	-8.28
CC(Cn1ccnc1)NC(=O)C1(c2ccc(F)cc2)CC1 (stereo unspecified)	%	-8.11
CNC(=O)[C@H]1C[C@@H]2CN(S(=O)(=O)c3cccc(C)c3)C[C@@H]2N1C	%	2.15
Cc1ccc(CN2CCc3[nH]nc(C(=O)N(C)C)c3C2)s1	%	3.17
CCCSc1nn(CCCN(C)C)c2nc3sc(C)c(CC)c3c(=O)n12	%	11.5
Brc1ccc(C2(CNCc3cc[nH]c3)CCOCC2)cc1	%	-0.56
CNC(=O)CSC(C)c1ccc(Br)cc1 (stereo unspecified)	%	2.63

----------
# Assay: Human HepG2 cell viability assay in 384 well format
# Assay type: toxicity, cell-based
# Design: dose 125 nL, time 70.5 hour; concentration not given beside the values
# Condition Context: HepG2 cells, read-out: Inhibition

Molecule	Unit String	cytotoxicity at 70.5 h
CNC(=O)[C@H]1C[C@H]2OCC[C@H]2N(CCOc2ccc(Cl)cc2)C1	%	-1.59
CC(C)N1CCO[C@H]2CN(C(=O)c3ccc(N(C)C)cc3)C[C@H]21	%	-2.38
COCCc1nc(CSc2ccncc2)n(C)n1	%	1.99
CCC[C@H]1CN(S(C)(=O)=O)C[C@@H]1NC(=O)CCCn1ccnc1	%	1.51
COCCNC(=O)c1nc2c(s1)CCCN2c1ccc(C)nn1	%	0.81
Clc1snnc1CN1CCCCC1Cn1cccn1 (stereo unspecified)	%	26.2
Cc1oc2nc[nH]c(=O)c2c1C(=O)N1CCCC(n2cccn2)C1 (stereo unspecified)	%	-4.01
CSCC1CCN(c2nc(N)ncc2C)CC1	%	-9.1
CNCC(=O)N1CCCC(c2cccc(Nc3nc(C)cc(C)n3)n2)C1 (stereo unspecified)	%	58.7
COCc1ccccc1C(=O)N1CCn2c(nnc2C(C)C)C1	%	-3.21
CN(Cc1cnn(C)c1)CC1CCCN1c1cccnn1 (stereo unspecified)	%	-4.73

----------
# Assay: Human HepG2 cell viability assay in 384 well format
# Assay type: toxicity, cell-based
# Parameters: dose 125 nL, time 70.5 hour; concentration not given beside the values
# Condition Context: HepG2 cells, read-out: Inhibition

Compound	cytotoxicity at 70.5 h (%)
CC(C)CC(=O)N1CCCC1c1ccsc1 (stereo unspecified)	-10.6
Cc1cc(C)n(CC2CCCN2Cc2cscn2)n1 (stereo unspecified)	5.49
O=C(c1cccc(F)c1)N1CCC2(CC1)CC(N1CCOCC1)C2	-14.8
COCC(=O)NCc1cc(=O)n2c(n1)CN(Cc1cccs1)CCC2	-6.99
CC(=O)NC1CCN(C(=O)Nc2cccc(C(F)(F)F)c2)CC1	20.6
COCC(=O)N1CCN(C(C)C(=O)NC(C)C)CC1 (stereo unspecified)	5.85

----------
Measured cytotoxicity at 70.5 h of individual entries
# Assay: Human HepG2 cell viability assay in 384 well format
# Assay type: toxicity, cell-based
# Set-up: dose 125 nL, time 70.5 hour; concentration not given beside the values
# Condition Context: HepG2 cells, read-out: Inhibition
Measurement Label: cytotoxicity at 70.5 h

Molecule	Measurement Label	Result
COCC1c2c(cnn2C)CCN1C(=O)c1ccc2c(c1)OCO2 (centres undefined)	cytotoxicity at 70.5 h	1.82%
CS(=O)(=O)NCC1CCCCN1C(=O)Nc1cccnc1N1CCCC1 (centres undefined)	cytotoxicity at 70.5 h	39.8%
COCc1cnc2n1CCN(C(=O)c1oc3ccccc3c1C)C2C (centres undefined)	cytotoxicity at 70.5 h	18.3%
COc1cccc(CC(=O)N2CCN(C)c3ncccc3C2)c1	cytotoxicity at 70.5 h	1.87%
COc1cccc(C(=O)Oc2cc(=O)n3cccc(C)c3n2)c1	cytotoxicity at 70.5 h	-24.8%
Cn1cc(CN2CC[C@@H]3[C@@H](CCC(=O)N3CCc3c[nH]cn3)C2)cn1	cytotoxicity at 70.5 h	-6.69%
CC(C)N(Cc1ccccc1)Cc1nnsc1Cl	cytotoxicity at 70.5 h	-8.66%
CCn1ccc(NC(=O)CN2C(=O)C(C)(C)c3ccccc32)n1	cytotoxicity at 70.5 h	-11.1%
Cc1cccc(C(C(=O)N(C)CCc2cn[nH]c2)N(C)C)c1 (centres undefined)	cytotoxicity at 70.5 h	-8.71%
O=C(c1coc(-c2ccccc2)n1)N1CCCC1	cytotoxicity at 70.5 h	3.66%
Cc1ccc(OCc2occc2C(=O)O)cc1	cytotoxicity at 70.5 h	-5.9%
Cn1c2ccc(F)cc2c2ncn(CCCN(CCO)CCO)c(=O)c21	cytotoxicity at 70.5 h	18.9%
Cc1nc(COCc2cnc3n2CCN(C(=O)C2CC2)C3C)cs1 (centres undefined)	cytotoxicity at 70.5 h	11.4%
O=C(NC1CC(F)(F)C1)[C@]12COC[C@H]1CN(Cc1ccsc1)C2	cytotoxicity at 70.5 h	-2.91%
COc1cc2cc(C)c(SCCN3CCCCC3)nc2cc1OC	cytotoxicity at 70.5 h	4.15%
O=C(NCCC1CCCO1)c1ccccc1N1CCOCC1 (centres undefined)	cytotoxicity at 70.5 h	1.49%
Cc1nccn1-c1ccc(NS(=O)(=O)c2cnn(C(C)C)c2)cn1	cytotoxicity at 70.5 h	-2.54%
Cc1csc(C2CCCCN2C(=O)c2cc(Cl)c[nH]2)n1 (centres undefined)	cytotoxicity at 70.5 h	-0.326%
Cc1nccn1CCCN1CCCC(c2ccccc2)C1 (centres undefined)	cytotoxicity at 70.5 h	-1.68%
CN(CC(=O)NCC(C)(C)c1ccc2c(c1)OCO2)c1cnccn1	cytotoxicity at 70.5 h	-12.3%
OCC1(O)CCN(Cc2ccc(-c3cc[nH]n3)s2)CC1	cytotoxicity at 70.5 h	6.86%
CCc1nc(CN(C)C(=O)CSC)no1	cytotoxicity at 70.5 h	-11.3%
Cn1nc2c(cc1=O)CN(CCc1nc3ccccc3c(=O)[nH]1)CC2	cytotoxicity at 70.5 h	1.45%
COc1ccc2c(c1)CC(NCCCn1nc(C)nc1C)CC2 (centres undefined)	cytotoxicity at 70.5 h	-9.14%
